# test_summary: chemical genetic growth profiling, strain panel (AID 1159580);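 note: tested at 20 µM; growth read once vehicle control cultures reached saturation at 30 °C; 1 = growth at the plate median or of vehicle wells; lower values mean less growth of the strain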
# measurement_parameters: S. cerevisiae deletion strains, growth OD, locus YMR001C, strain CDC5
Among all 5,500 compounds or so, about 2,000 (36%) were called active. Not shown: some 18% with an inconclusive outcome. Cut-off read from the data, not from the text of the source: active = normalized growth mostly below about 0.91 (no sharp cut-off); inconclusive = no clear call, values can overlap the other calls; inactive = mostly above about 0.92. The list shows a part of the results.
Hi! Could you answer with just one of these? active, inactive

Q: For this compound, state the assay outcome: O=C(Nc1ccc(OC(F)(F)F)cc1)OC1CN(C(c2ccccc2)c2ccccc2)C1
Result: inactive

Q: For this compound, state the assay outcome: Cc1ccc(NNC(=O)c2c(C)noc2C)cc1Cl
Result: inactive

Q: For this compound, state the assay outcome: Cc1onc(-c2c(F)cccc2Cl)c1C(=O)ON=C1C2CC3CC(C2)CC1C3
Result: active

Q: For this compound, state the assay outcome: Cc1ccc(NC(=O)c2ccccc2N=Cc2cc(Cl)cc(Cl)c2O)c(N=Cc2cc(Cl)cc(Cl)c2O)c1
Result: inactive

Q: For this compound, state the assay outcome: O=C(Nc1ccc(OC(F)(F)F)cc1)N1CCN(c2nc(-c3ccccc3)ns2)CC1
Result: inactive

Q: For this compound, state the assay outcome: O=[N+]([O-])c1ccc(Sc2ssc(=S)c2-c2ccccc2)nc1
Result: inactive

Q: For this compound, state the assay outcome: Cc1onc(-c2c(Cl)cccc2Cl)c1C(=O)NC(C)(C)CC(C)(C)C
Result: inactive

Q: For this compound, state the assay outcome: CC(C)(C)c1ccc(C(=O)NNc2c(Cl)cccc2Cl)cc1
Result: inactive

Q: For this compound, state the assay outcome: Cc1onc(-c2c(F)cccc2Cl)c1C(=O)NNc1cc(Cl)cc(Cl)c1
Result: inactive

Q: For this compound, state the assay outcome: O=C(NNc1ccc(I)cc1)c1cc(Cl)cc(Cl)c1
Result: inactive

###

# test_summary: chemical genetic growth profiling, strain panel (AID 1159580);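 note: tested at 20 µM; growth read once vehicle control cultures reached saturation at 30 °C; 1 = growth at the plate median or of vehicle wells; lower values mean less growth of the strain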
# measurement_parameters: S. cerevisiae deletion strains, growth OD, locus YIR030C, strain dcg1, stronger effect = lower value
Out of some 5,500 compounds screened, about 2,000 (36%) were called active. About 18% were inconclusive and are not listed. The list shows a part of the results.
measured_parameter: normalized growth
Reply briefly: the number, and no unit.

Q: Dear colleague, please send me the reported normalized growth for CC(C)C(=O)Nc1ccc([N+](=O)[O-])c(C(F)(F)F)c1 when you can.
Result: 0.973

Q: Dear colleague, please send me the reported normalized growth for COc1cc(-c2coc3cc(OCc4ccccc4)c(OC)c(O)c3c2=O)cc(O)c1OC when you can.
Result: 0.979

Q: Dear colleague, please send me the reported normalized growth for COC(=O)C(C)c1ccc(C(=O)c2cccs2)cc1 (stereo unspecified) when you can.
Result: 0.957

Q: Dear colleague, please send me the reported normalized growth for COC(=O)C1=CCCN(C)C1 when you can.
Result: 0.98

Q: Dear colleague, please send me the reported normalized growth for O=C(O)c1cc2cc(Cc3cccnc3)ccc2o1 when you can.
Result: 0.995

Q: Dear colleague, please send me the reported normalized growth for CC1(C)O[C@@H]2CC3C4CCC5=CC(=O)CCC5(C)C4(F)C(O)CC3(C)[C@]2(C(=O)CCl)O1 (stereo partly specified) when you can.
Result: 0.983

###

# test_summary: chemical genetic growth profiling, strain panel (AID 1159580);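 note: tested at 20 µM; growth read once vehicle control cultures reached saturation at 30 °C; 1 = growth at the plate median or of vehicle wells; lower values mean less growth of the strain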
# measurement_parameters: S. cerevisiae deletion strains, growth OD, locus YLR039C, strain RIC1, stronger effect = lower value
About 2,000 (36%) of roughly 5,500 compounds were called active. Another 18% or so got no clear call; they are omitted. This is one part of the list.
measured_parameter: normalized growth
Reply briefly: the number, and no unit.

Q: Dear colleague, please send me the reported normalized growth for C=C1C(=O)O[C@@H]2C3O[C@]3(C)CC/C=C(\C)CC[C@@H]12 (stereo partly specified) when you can.
Result: 0.245

Q: Dear colleague, please send me the reported normalized growth for O=C1CCC(c2cccs2)=NN1 when you can.
Result: 0.993

Q: Dear colleague, please send me the reported normalized growth for COc1cc(-c2coc3cc(OC)c(OC)c(OC)c3c2=O)cc(OC)c1OC when you can.
Result: 1

Q: Dear colleague, please send me the reported normalized growth for C=CCSCC1Nc2cc(Cl)c(S(N)(=O)=O)cc2S(=O)(=O)N1 (stereo unspecified) when you can.
Result: 1.02

Q: Dear colleague, please send me the reported normalized growth for CC(C)n1cc(C#N)c(=O)n(Cc2ccccc2)c1=O when you can.
Result: 1.01

Q: Dear colleague, please send me the reported normalized growth for COC(=O)C1=CCCN(C)C1 when you can.
Result: 0.983

Q: Dear colleague, please send me the reported normalized growth for COc1cc2occ(-c3ccccc3)c(=O)c2c(OC)c1C when you can.
Result: 0.763

Q: Dear colleague, please send me the reported normalized growth for C=C1C(=O)OC2CC1C(OC(C)=O)C/C(C)=C/CC/C(C)=C/CC[C@]2(C)O (stereo partly specified) when you can.
Result: 0.894

Q: Dear colleague, please send me the reported normalized growth for Nc1ccn(C2O[C@H](CO)[C@@H](O)[C@@H]2O)c(=O)n1 (stereo partly specified) when you can.
Result: 1.03

Q: Dear colleague, please send me the reported normalized growth for O=C(O)c1ccccc1-c1c2cc(Br)c(=O)cc-2oc2[c]([Hg])c(O)c(Br)cc12 when you can.
Result: 0.949

Q: Dear colleague, please send me the reported normalized growth for CCOC(=O)Cn1c(=O)c(C#N)cn(C(C)C)c1=O when you can.
Result: 1.02

###

# test_summary: chemical genetic growth profiling, strain panel (AID 1159580);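 note: tested at 20 µM; growth read once vehicle control cultures reached saturation at 30 °C; 1 = growth at the plate median or of vehicle wells; lower values mean less growth of the strain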
# measurement_parameters: S. cerevisiae deletion strains, growth OD, locus YIL125W, strain kgd1, stronger effect = lower value
Out of some 5,500 compounds screened, about 2,000 (36%) were called active. Inconclusive results (about 18%) are left out. This is one part of the list.
Could you please report measured normalized growth for the items listed next?
Reply briefly: the number, and no unit.

Q: Dear colleague, please send me the reported normalized growth for C=C1C(=O)O[C@@H]2C[C@@]3(C)CCC[C@H](C)C3=C[C@H]12 when you can.
Result: 0.953

Q: Dear colleague, please send me the reported normalized growth for CC(=O)OCC[C@H](C)CCC=C(C)C when you can.
Result: 1.01

Q: Dear colleague, please send me the reported normalized growth for CCN(CC)CCOC(=O)c1ccc(N)cc1 when you can.
Result: 0.995

Q: Dear colleague, please send me the reported normalized growth for CCCCN(CCCC)CCCOC(=O)c1ccc(N)cc1 when you can.
Result: 0.987

Q: Dear colleague, please send me the reported normalized growth for C#CCCCCCCCCCCCC(=O)CC(O)COC(C)=O (stereo not drawn) when you can.
Result: 0.97

Q: Dear colleague, please send me the reported normalized growth for CO/N=C(\C(=O)N[C@@H]1C(=O)N2C(C(=O)O)=C(COC(C)=O)CS[C@H]12)c1csc(N)n1 when you can.
Result: 0.986

Q: Dear colleague, please send me the reported normalized growth for CCCCNc1ccc(C(=O)OCCN(C)C)cc1 when you can.
Result: 1.02

Q: Dear colleague, please send me the reported normalized growth for C#CCCCCCCCCCCCC(O)CC(O)CO (stereo not drawn) when you can.
Result: 1.03

Q: Dear colleague, please send me the reported normalized growth for CC(=O)OCC(OC(C)=O)C(OC(C)=O)C(OC(C)=O)C(OC(C)=O)C(COC(C)=O)OC(C)=O (stereo not drawn) when you can.
Result: 0.976

Q: Dear colleague, please send me the reported normalized growth for CO/N=C(\C(=O)N[C@@H]1C(=O)N2C(C(=O)O)=C(CSc3nc(=O)c(O)nn3C)CS[C@H]12)c1csc(N)n1 when you can.
Result: 0.985

Q: Dear colleague, please send me the reported normalized growth for C=CCCCCCCCCCCCC(O)CC(O)COC(C)=O (stereo not drawn) (tested in a mixture with another compound) when you can.
Result: 0.908

Q: Dear colleague, please send me the reported normalized growth for CCN(CC)C(=O)c1cccc(C)c1 when you can.
Result: 1

Q: Dear colleague, please send me the reported normalized growth for CC1(C)O[C@H]2[C@H](O)C[C@](O)(C(N)=O)C[C@H]2O1 when you can.
Result: 1.01
